target: human DHODH (Homo sapiens, UniProt Q02127); experiment: Inhibition assay of DHODH activity; details: recombinant human DHODH; 50 μM decyclo ubichinone, 100 μM dihydroorotate, 60 μM 2,6-dichloroindophenol; pH 8.0, 30° C.
Sequence (Q02127 whole entry): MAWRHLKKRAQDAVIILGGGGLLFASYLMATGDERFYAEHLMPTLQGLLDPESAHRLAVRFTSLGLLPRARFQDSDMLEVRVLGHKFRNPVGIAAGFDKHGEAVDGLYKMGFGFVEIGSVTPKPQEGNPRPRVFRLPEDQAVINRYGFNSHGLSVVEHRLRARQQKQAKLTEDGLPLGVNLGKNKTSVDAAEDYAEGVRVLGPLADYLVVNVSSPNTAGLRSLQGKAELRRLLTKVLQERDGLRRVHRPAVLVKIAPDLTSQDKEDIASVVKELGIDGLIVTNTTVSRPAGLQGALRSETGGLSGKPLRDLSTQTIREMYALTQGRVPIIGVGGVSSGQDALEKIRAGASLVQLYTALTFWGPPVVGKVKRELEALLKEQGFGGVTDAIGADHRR
Quantity name: IC50

Note to self: IC50 recorded for COc1cccc(-c2ccc(NC(=O)C3=C(C(=O)O)C(O)CC3)c(F)c2)c1 (centres unmarked) was < 1000 nM

Note to self: IC50 recorded for O=C(O)C1=C(C(=O)Nc2c(F)cc(-c3ccccc3F)cc2F)CCC1O (centres unmarked) was < 1000 nM
